The reported measurements were obtained from ChEMBL document CHEMBL4689842.

# System: Fibroblast
# assay.protocol: Multiplex assay against human fibroblast
# Type: toxicity, cell-based
# test.settings: 24 h, 10 µM, compound concentration 10 uM, replicate 1
readout.type: Population Tubulin-Different-Phenotype (%)
Give a bare numeral; the unit % is implied.

Query block: Entry "Cc1cc(C)c(S(=O)(=O)N(Cc2ccc(-c3cccc(S(C)(=O)=O)c3)cc2)Cc2ccc(C(F)(F)F)o2)c(C)c1" has what Population Tubulin-Different-Phenotype (%)?
Result block: 72

Query block: // returns reported Population Tubulin-Different-Phenotype (%) for input CCCn1c(=O)c2[nH]c(-c3cnn(Cc4cccc(C(F)(F)F)c4)c3)nc2n(CC)c1=O [GS 6201]
Result block: 56

Query block: Sample "COC(=N)c1nc2ccc3ncnc(Nc4ccc(OC)cc4F)c3c2s1" — what was its Population Tubulin-Different-Phenotype (%)?
Result block: 1

Query block: Report Population Tubulin-Different-Phenotype (%) for O=C(Nc1ccc(-n2nc(-c3cccnc3)cc2C(F)(F)F)cn1)c1ccc(-c2ccccc2)c(F)c1 [BI 2049] please.
Result block: 46

* * *

# Test system: Fibroblast
# assay.protocol: Multiplex assay against human fibroblast
# Assay type: toxicity, cell-based
# test.settings: 12 h, 10 µM, compound concentration 10 uM, replicate 2
Classify as follows. Reported Population Healthy Nuclei (%) greater than or equal to 50%: 1 (yes). Reported Population Healthy Nuclei (%) below: 0 (no).

Query block: Does Population Healthy Nuclei (%) meet or surpass 50% for "CCN1CCN(Cc2ccc(Nc3ncc(F)c(-c4cc(F)c5nc(C)n(C(C)C)c5c4)n3)nc2)CC1.CS(=O)(=O)O" ?
Result block: 0 (no)

Query block: Hello, I need to know if "S=C(NCCCc1c[nH]cn1)NCCCN(Cc1ccc(Cl)c(Cl)c1)c1ccc(Br)cn1" has measured Population Healthy Nuclei (%) not below 50%. Thanks!
Result block: 0 (no)

Query block: Is the recorded value of Population Healthy Nuclei (%) equal to or greater than 50% for this compound? "CNc1cc(Oc2cc(C(=O)Nc3cc(N4CCN(C)CC4)cc(C(F)(F)F)c3)ccc2C)ncn1"
Result block: 0 (no)

Query block: Has CN(C)C(=O)C(CCN1CCC(O)(c2ccc(Cl)cc2)CC1)(c1ccccc1)c1ccccc1.Cl [LOPERAMIDE HYDROCHLORIDE] a recorded Population Healthy Nuclei (%) greater than or equal to 50%?
Result block: 0 (no)

Query block: Is Population Healthy Nuclei (%) for "NC(=O)c1cccc(-c2cc(Nc3ccc(OC(F)(F)F)cc3)ncn2)c1" at or above 50%?
Result block: 0 (no)

Query block: Evaluate Cn1nc(C(F)(F)F)cc1-c1cnc(N2CCc3cc(S(=O)(=O)Nc4c(F)cc(Cl)cc4F)cc(N4CCCC4=O)c32)nc1 [TP-020] : Population Healthy Nuclei (%) at minimum 50%?
Result block: 0 (no)

Query block: Answer whether Population Healthy Nuclei (%) of CN1CCC(=C2c3ccccc3CC(=O)c3sccc32)CC1.O=C(O)/C=C/C(=O)O [KETOTIFEN FUMARATE] is greater than or equal to 50%.
Result block: 1 (yes)

Query block: Determine whether this compound has Population Healthy Nuclei (%) no lower than 50%: COc1cc2ncnc(Nc3ccc(F)c(Cl)c3)c2cc1NC(=O)/C=C/CN1CCCCC1 [DACOMITINIB ANHYDROUS]
Result block: 0 (no)

Query block: Answer whether Population Healthy Nuclei (%) of CN1C2CCC1CC(OC(c1ccc(F)cc1)c1ccc(F)cc1)C2.Cl (stereo not given) is greater than or equal to 50%.
Result block: 1 (yes)

Query block: Dear colleague, could you confirm whether O=C1NC(=O)C(c2cnc3ccccn23)=C1c1cn2c3c(cc(F)cc13)CN(C(=O)N1CCCCC1)CC2 [LY-2090314] has Population Healthy Nuclei (%) at or above 50%?
Result block: 1 (yes)

* * *

I'd be grateful if you could share measured Total Cell Count for these entries.
# Test system: U2OS
# assay.protocol: Multiplex assay against U2OS
# Format: toxicity, cell-based
# test.settings: human, 48 h, 10 µM, compound concentration 10 uM, replicate 2
The response must contain the number and no unit.

Query block: Entry under review: "O=C(Nc1ccc(-c2ccnc(Nc3ccc(N4CCOCC4)cc3)n2)cc1)[C@@H]1CCCN1" . Reported Total Cell Count?
Result block: 125

Query block: What measured Total Cell Count goes with "Cc1cc(C)c(S(=O)(=O)N(Cc2ccc(-c3cccc(S(C)(=O)=O)c3)cc2)Cc2ccc(C(F)(F)F)o2)c(C)c1" ?
Result block: 148

Query block: Could you share which Total Cell Count value was measured for "CCN1CCN(Cc2ccc(Nc3ncc(F)c(-c4cc(F)c5nc(C)n(C(C)C)c5c4)n3)nc2)CC1.CS(=O)(=O)O" ?
Result block: 70

* * *

# System: Fibroblast
# assay.protocol: Multiplex assay against human fibroblast
# Assay type: toxicity, cell-based
# test.settings: 24 h, 10 µM, compound concentration 10 uM, replicate 2
readout.type: Total Cell Count
Enter a number only.

Query block: Name the recorded Total Cell Count for CN1C2CCC1CC(OC(c1ccc(F)cc1)c1ccc(F)cc1)C2.Cl (stereo not drawn) .
Result block: 107

Query block: Entry CCN1CCN(c2ccc(Nc3cc(N(C)C(=O)Nc4c(Cl)c(OC)cc(OC)c4Cl)ncn3)cc2)CC1 [INFIGRATINIB] : reported Total Cell Count = ?
Result block: 99

Query block: If you can, please state the reported Total Cell Count value of CCn1cc(-c2ccnc3[nH]c(-c4cccc(CN(C)C)c4)cc23)c(-c2ccc(NC(=O)N(C)C)cc2)n1 [GSK-1070916] .
Result block: 129

Query block: Fill blank: measured Total Cell Count of the compound "CNC(=O)c1ccc(Nc2nc(OC3CCCC3)c3c(-c4ccc5nc(C)oc5c4)c[nH]c3n2)c(OC)c1" is ____.
Result block: 85

Query block: Recorded Total Cell Count of COc1ccc(-c2ccc3c(N4CCOCC4)nc(N4C[C@@H](C)O[C@@H](C)C4)nc3n2)cc1CO [Ku-0063794] , please.
Result block: 241

Query block: Look up Total Cell Count for this compound: "CCN1CCN(Cc2ccc(Nc3ncc(F)c(-c4cc(F)c5nc(C)n(C(C)C)c5c4)n3)nc2)CC1.CS(=O)(=O)O"
Result block: 74

Query block: Fill in: Total Cell Count of O=C(Nc1ccc(-n2nc(-c3cccnc3)cc2C(F)(F)F)cn1)c1ccc(-c2ccccc2)c(F)c1 [BI 2049] is ___
Result block: 82

Query block: What does the data say about its Total Cell Count? Entry: CCCS(=O)(=O)Nc1ccc(F)c(C(=O)c2c[nH]c3ncc(Cl)cc23)c1F [PLX-4720]
Result block: 98

* * *

# Tested on: Fibroblast
# assay.protocol: Multiplex assay against human fibroblast
# Type: toxicity, cell-based
# test.settings: 24 h, 10 µM, compound concentration 10 uM, replicate 2
readout.type: Population Membrane Permeable-Phenotype (%)
Give just the numeric value; % need not be written.

Query block: For the record CN1C2CCC1CC(OC(c1ccc(F)cc1)c1ccc(F)cc1)C2.Cl (centres undefined) , what value of Population Membrane Permeable-Phenotype (%) is listed for Fibroblast?
Result block: 6

Query block: Write down the reported Population Membrane Permeable-Phenotype (%) of "Cc1ccc(C(=O)Nc2cccc(C(F)(F)F)c2)cc1Nc1nc(-c2cccnc2)nc2c1cnn2C" , test system: Fibroblast.
Result block: 100

Query block: # value lookup — system Fibroblast, readout Population Membrane Permeable-Phenotype (%), item "C=CCn1c(=O)c2cnc(Nc3ccc(N4CCN(C)CC4)cc3)nc2n1-c1cccc(C(C)(C)O)n1"
Result block: 9

Query block: // lookup Population Membrane Permeable-Phenotype (%) | system=Fibroblast | key= CCOC(=O)c1c(C)[nH]c2ccc3c(c12)CN1CCc2cc(OC)ccc2C1O3 (centres undefined)
Result block: 83

Query block: # query: Population Membrane Permeable-Phenotype (%) | item "CCn1c(=O)c(-c2ccc(-c3cncs3)cc2Cl)cc2cnc(Nc3ccc(N4CCN(C)CC4)cc3)nc21" | system: Fibroblast
Result block: 7

Query block: Please provide the recorded Population Membrane Permeable-Phenotype (%) for "CNC(=O)c1ccc(Nc2nc(OC3CCCC3)c3c(-c4ccc5nc(C)oc5c4)c[nH]c3n2)c(OC)c1" , tested on Fibroblast.
Result block: 7

Query block: Quick check: Population Membrane Permeable-Phenotype (%) on Fibroblast, item "COc1cccc2cc(-c3nc([C@H]4CC[C@H](C(=O)O)CC4)n4ncnc(N)c34)[nH]c12" ?
Result block: 17

Query block: Lab request: please report Population Membrane Permeable-Phenotype (%) under test system Fibroblast for "CCc1cccc(CC)c1NC(=O)c1nn(C)c2c1CCc1cnc(Nc3ccc(C(=O)NC4CCN(C)CC4)cc3OC(F)(F)F)nc1-2"
Result block: 26

Query block: Report Population Membrane Permeable-Phenotype (%) for "CCN1CCN(Cc2ccc(Nc3ncc(F)c(-c4cc(F)c5nc(C)n(C(C)C)c5c4)n3)nc2)CC1.CS(=O)(=O)O" tested on Fibroblast.
Result block: 100
